Hello, the source for this data is patent US20260317324A1, in case you need it.

Reported DC50 is given for each of the following compounds.
# targetEntity: BRAF G469A (Homo sapiens, UniProt P15056, G469A)
# Construct: Horizon Discovery (HCT-116 BRAF−/− cells); host or cells: HCT-116 BRAF−/− cells, clone 34, lentiviral transduction
# Sequence (P15056 whole entry G469A): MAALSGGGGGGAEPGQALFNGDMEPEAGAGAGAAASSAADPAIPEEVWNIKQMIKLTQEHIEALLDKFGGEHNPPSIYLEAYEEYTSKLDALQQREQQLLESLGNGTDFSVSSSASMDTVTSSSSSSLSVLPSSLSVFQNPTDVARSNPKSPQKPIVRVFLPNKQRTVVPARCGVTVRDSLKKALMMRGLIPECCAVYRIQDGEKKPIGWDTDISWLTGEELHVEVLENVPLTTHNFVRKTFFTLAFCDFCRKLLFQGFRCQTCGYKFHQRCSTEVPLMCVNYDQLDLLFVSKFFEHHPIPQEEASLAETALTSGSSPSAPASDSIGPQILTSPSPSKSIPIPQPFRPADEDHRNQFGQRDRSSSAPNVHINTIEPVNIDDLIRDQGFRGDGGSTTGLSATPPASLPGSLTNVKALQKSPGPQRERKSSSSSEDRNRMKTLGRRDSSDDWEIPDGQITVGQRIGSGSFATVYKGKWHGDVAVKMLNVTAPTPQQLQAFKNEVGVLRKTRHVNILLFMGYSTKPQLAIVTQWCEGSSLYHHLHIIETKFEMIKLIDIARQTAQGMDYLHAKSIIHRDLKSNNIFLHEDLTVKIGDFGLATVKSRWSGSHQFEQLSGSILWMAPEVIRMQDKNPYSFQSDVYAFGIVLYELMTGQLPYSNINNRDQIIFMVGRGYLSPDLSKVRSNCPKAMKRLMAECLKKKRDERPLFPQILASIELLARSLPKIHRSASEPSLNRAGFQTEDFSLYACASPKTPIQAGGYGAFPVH
# assayComment: BRAF HiBiT degradation assay, C-terminal HiBiT-tagged BRAF G469A overexpressed in HCT-116 BRAF−/− cells (clone 34), Nano-Glo HiBiT Lytic assay
# Assay type: cell-based
# conditionsUsed: Class 2; BRAF G469A; DC50 at 50%: fitted conc. at Y=50

[[record]]
compound = "CCCS(=O)(=O)Nc1cccc(-c2nc(C(C)(C)C3CCN(C(=O)C4CN(C5CCN(c6ccc7c(c6)C(=O)N(C6CCC(=O)NC6=O)C7=O)CC5)C4)CC3)sc2-c2ccnc(N)n2)c1F (racemic)"
recordedmeasurement = "> 500 nM"


Entry CCCS(=O)(=O)Nc1cccc(-c2cn(-c3ccc(N4CCN(CC5CCN(c6ccc(C7CCC(=O)NC7=O)cn6)CC5)CC4)nc3)nc2-c2ccncc2)c1F (racemic) — recorded DC50 = > 500 nM

Query CCCS(=O)(=O)Nc1cccc(-c2nc(C(C)(C)C)sc2-c2ccnc(Nc3ccc(N4CCN(C(=O)C5CCN(c6ccc(C7CCC(=O)NC7=O)cc6)CC5)CC4)cc3)n2)c1F (racemic) yields DC50 of 10 to 50 nM

The compound CCCS(=O)(=O)Nc1cccc(-c2nc(C(C)(C)C)sc2-c2ccnc(Nc3ccc(N4CCN(C(=O)C5CCN(c6ccc(C7CCC(=O)NC7=O)cn6)CC5)CC4)c(F)c3)n2)c1F (racemic) showed DC50 equal to > 500 nM

Entry CCCS(=O)(=O)Nc1cccc(-c2nc(C(C)(C)C)sc2-c2ccnc(Nc3cnn(C4CCN(C(=O)[C@H]5CC[C@H](Oc6ccc(C7CCC(=O)NC7=O)cc6)CC5)CC4)c3)n2)c1F (mixture of isomers) — recorded DC50 = > 500 nM

---

# targetEntity: BRAF D594G (Homo sapiens, UniProt P15056, D594G)
# Construct: Horizon Discovery (HCT-116 BRAF−/− cells); host or cells: HCT-116 BRAF−/− cells, clone 63, lentiviral transduction
# Sequence (P15056 whole entry D594G): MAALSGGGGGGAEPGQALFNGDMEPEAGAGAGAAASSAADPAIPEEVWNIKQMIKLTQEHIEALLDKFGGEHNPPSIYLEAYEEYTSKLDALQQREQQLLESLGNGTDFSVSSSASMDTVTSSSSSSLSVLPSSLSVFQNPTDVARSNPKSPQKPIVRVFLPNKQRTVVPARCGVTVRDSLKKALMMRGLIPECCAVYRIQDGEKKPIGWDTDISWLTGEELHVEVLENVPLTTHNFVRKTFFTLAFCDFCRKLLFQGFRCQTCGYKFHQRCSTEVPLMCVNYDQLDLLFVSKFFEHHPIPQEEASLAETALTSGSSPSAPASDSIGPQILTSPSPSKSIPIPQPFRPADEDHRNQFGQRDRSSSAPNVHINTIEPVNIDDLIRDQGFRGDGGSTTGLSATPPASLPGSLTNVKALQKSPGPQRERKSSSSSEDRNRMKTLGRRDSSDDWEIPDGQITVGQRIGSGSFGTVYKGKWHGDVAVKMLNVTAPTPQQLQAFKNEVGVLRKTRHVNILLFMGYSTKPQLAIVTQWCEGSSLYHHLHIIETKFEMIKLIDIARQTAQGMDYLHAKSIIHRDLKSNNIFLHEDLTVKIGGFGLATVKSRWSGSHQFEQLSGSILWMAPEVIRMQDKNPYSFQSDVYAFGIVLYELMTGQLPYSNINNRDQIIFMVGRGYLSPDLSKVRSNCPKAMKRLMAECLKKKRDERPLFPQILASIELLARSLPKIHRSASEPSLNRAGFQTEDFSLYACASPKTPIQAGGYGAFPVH
# assayComment: BRAF HiBiT degradation assay, C-terminal HiBiT-tagged BRAF D594G overexpressed in HCT-116 BRAF−/− cells (clone 63), Nano-Glo HiBiT Lytic assay
# Type: cell-based
# conditionsUsed: BRAF D594G (Class 3), HCT-116 BRAF−/− cells; DC50 at 50% degradation
DC50 listing for selected compounds.

Guide cases for DC50, answers given:
[[record]]
compound = "O=C1CCN(c2ccc(N3CCC(CN4CCN(c5ccc(-n6cc(-c7cc(Cl)cc(NS(=O)(=O)N8CC(F)C8)c7F)c(-c7ccncc7)n6)c(F)c5)CC4)CC3)cc2)C(=O)N1 [Compound 339]"
recordedmeasurement = "10 to 50 nM"

[[record]]
compound = "O=C1CCN(c2ccc(N3CCC(CN4CCN(c5ccc(-n6cc(-c7cc(Cl)cc(NS(=O)(=O)N8CC(F)C8)c7F)c(-c7ccncc7)n6)cc5)CC4)CC3)nc2)C(=O)N1 [Compound 368]"
recordedmeasurement = "< 10 nM"

[[record]]
compound = "CCCS(=O)(=O)Nc1cc(Cl)cc(-c2cn(-c3ccc(N4CCN(CC5CCN(c6ccc(C7CCC(=O)NC7=O)cn6)CC5)[C@H](C)C4)cc3)nc2-c2ccncc2)c1F (mixture of isomers) [Compound 276]"
recordedmeasurement = "< 10 nM"

[[record]]
compound = "CCCS(=O)(=O)Nc1cccc(-c2nc(C3CCC4(CC3)CN(C(=O)CC3CCN(C5CCN(c6ccc7c(c6)C(=O)N(C6CCC(=O)NC6=O)C7=O)CC5)CC3)C4)sc2-c2ccnc(N)n2)c1F (racemic) [Compound 247]"
recordedmeasurement = "> 500 nM"

[[record]]
compound = "CCN(C)S(=O)(=O)Nc1cc(F)cc(-c2cn(-c3ccc(N4CCN(CC5CCN(c6ccc(C7CCC(=O)NC7=O)cn6)CC5)CC4)cc3)nc2-c2ccncc2)c1F (racemic) [Compound 376]"
recordedmeasurement = "< 10 nM"


# context switch: different compound, same DC50
Short answer for CCN(C)S(=O)(=O)Nc1cccc(-c2cn(-c3ccc(N4CCN(CC5CCN(c6ccc([C@H]7CCC(=O)NC7=O)cn6)CC5)CC4)cc3F)nc2-c2ccncc2)c1F [Compound 379] : DC50 was 50 to 500 nM
